target: FGFR1-BCR Ba/F3 cells (Homo sapiens, UniProt P11362); assay: Ba/F3 cell viability assay (CellTiter-Glo 2.0), FGFR1-BCR Ba/F3; format: cell-based; conditions: read-out: Ba/F3 Cells FGFR1 (IC50 nM), 48 hours, Cell Titer Glo 2.0
Sequence (P11362 22-822 limits assumed, change not shown): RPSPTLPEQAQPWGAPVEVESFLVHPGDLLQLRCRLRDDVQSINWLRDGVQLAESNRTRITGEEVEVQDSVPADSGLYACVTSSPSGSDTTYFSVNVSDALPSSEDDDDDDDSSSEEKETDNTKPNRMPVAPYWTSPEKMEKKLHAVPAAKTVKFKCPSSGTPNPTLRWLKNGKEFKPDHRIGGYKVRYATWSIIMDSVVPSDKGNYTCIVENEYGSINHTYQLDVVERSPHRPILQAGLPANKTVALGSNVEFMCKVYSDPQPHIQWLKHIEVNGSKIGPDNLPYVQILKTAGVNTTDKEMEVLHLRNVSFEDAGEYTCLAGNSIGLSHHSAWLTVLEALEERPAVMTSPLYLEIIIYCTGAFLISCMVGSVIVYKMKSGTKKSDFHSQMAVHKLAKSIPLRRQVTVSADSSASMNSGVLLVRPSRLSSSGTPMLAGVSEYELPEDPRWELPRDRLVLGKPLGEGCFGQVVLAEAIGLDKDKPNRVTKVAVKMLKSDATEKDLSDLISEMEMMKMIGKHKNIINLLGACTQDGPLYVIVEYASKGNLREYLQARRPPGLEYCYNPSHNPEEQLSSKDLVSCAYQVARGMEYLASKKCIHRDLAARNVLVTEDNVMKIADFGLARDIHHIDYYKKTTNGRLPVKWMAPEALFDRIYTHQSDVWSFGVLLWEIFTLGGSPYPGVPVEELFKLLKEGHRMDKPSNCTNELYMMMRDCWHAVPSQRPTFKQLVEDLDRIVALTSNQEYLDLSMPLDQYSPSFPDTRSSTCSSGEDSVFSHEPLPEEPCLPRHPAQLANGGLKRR
readout-label: IC50

For COC(=O)N1CC2(C1)CN(c1ccc(-c3n[nH]c4ccc(O[C@H](C)c5c(Cl)cncc5Cl)cc34)cn1)C2 , write its IC50.
20 to 100 nM

For C[C@@H](Oc1ccc2[nH]nc(-c3ccc(N4CCN(S(C)(=O)=O)CC4=O)nc3)c2c1)c1c(Cl)cncc1Cl , write its IC50.
100 to 300 nM

For C[C@@H](Oc1ccc2[nH]nc(-c3cnc(N4CC5(CCN(S(C)(=O)=O)C5)C4)nc3)c2c1)c1c(Cl)cncc1Cl , write its IC50.
100 to 300 nM

Field: next compound
For CCOC(=O)N1CCC2(CC1)CN(c1ccc(-c3n[nH]c4ccc(O[C@H](C)c5c(Cl)cncc5Cl)cc34)cn1)C2 , write its IC50.
> 300 nM

====

target: FGFR1-BCR Ba/F3 cells (Homo sapiens, UniProt P11362); experiment: Ba/F3 cell viability assay (CellTiter-Glo 2.0), FGFR1-BCR Ba/F3; type: cell-based; settings: read-out: Ba/F3 Cells FGFR1 (IC50 nM), 48 hours, Cell Titer Glo 2.0
Would you kindly list IC50 for each of these molecules?

Look over these answered cases.
For C[C@@H](Oc1ccc2[nH]nc(-c3cnc(N4CC5(CCCS(=O)(=O)C5)C4)nc3)c2c1)c1c(Cl)cncc1Cl , write its IC50.
100 to 300 nM

For C[C@@H](Oc1ccc2[nH]nc(-c3cnn(C4CCOCC4)c3)c2c1)c1c(Cl)cncc1Cl , write its IC50.
100 to 300 nM

For C[C@@H](Oc1ccc2[nH]nc(-c3ccc(N4CCN(C)CC4=O)nc3)c2c1)c1c(Cl)cncc1Cl , write its IC50.
100 to 300 nM

For C[C@@H](Oc1ccc2[nH]nc(-c3cnn([C@H]4CCNC4)c3)c2c1)c1c(Cl)cncc1Cl , write its IC50.
100 to 300 nM

For C[C@@H](Oc1ccc2[nH]nc(-c3ccc(N4CC5(CCN(S(C)(=O)=O)C5)C4)nc3)c2c1)c1c(Cl)cncc1Cl [Example 163] , write its IC50.
20 to 100 nM

For C[C@@H](Oc1ccc2[nH]nc(-c3ccc(N4CCC5(CCCO5)CC4)nc3)c2c1)c1c(Cl)cncc1Cl , write its IC50.
> 300 nM

Field: next molecule
For C[C@@H](Oc1ccc2[nH]nc(-c3cnc(N4CCC5(CCN(C)C5=O)CC4)nc3)c2c1)c1c(Cl)cncc1Cl , write its IC50.
100 to 300 nM

====

biological target: FGFR1-BCR Ba/F3 cells (Homo sapiens); assay: Ba/F3 cell viability assay (CellTiter-Glo 2.0), FGFR1-BCR Ba/F3; assay type: cell-based; details: read-out: Ba/F3 Cells FGFR1 (IC50 nM), 48 hours, Cell Titer Glo 2.0
readout-label: IC50

For C[C@@H](Oc1ccc2[nH]nc(-c3ccc(N4CC5(CCS(=O)(=O)CC5)C4)nc3)c2c1)c1c(Cl)cncc1Cl , write its IC50.
20 to 100 nM

For C[C@@H](Oc1ccc2[nH]nc(-c3ccc(C4CCN(S(C)(=O)=O)CC4)nc3)c2c1)c1c(Cl)cncc1Cl , write its IC50.
20 to 100 nM

For C[C@@H](Oc1ccc2[nH]nc(-c3ccc(N4CCC5(CCC(=O)N5)CC4)nc3)c2c1)c1c(Cl)cncc1Cl , write its IC50.
100 to 300 nM

Required: IC50, one value per compound below.
1. C[C@@H](Oc1ccc2[nH]nc(-c3ccc(F)nc3)c2c1)c1c(Cl)cncc1Cl
2. C[C@@H](Oc1ccc2[nH]nc(-c3cnc(N4CCC5(CC4)C(=O)NCCN5C)nc3)c2c1)c1c(Cl)cncc1Cl
3. C[C@@H](Oc1ccc2[nH]nc(-c3cnc(N4CCN(C(=O)N(C)C)CC4)nc3)c2c1)c1c(Cl)cncc1Cl
4. C[C@@H](Oc1ccc2[nH]nc(-c3cnc(N4CCC5(CC4)CC(=O)NC5=O)nc3)c2c1)c1c(Cl)cncc1Cl

1. > 300 nM
2. 100 to 300 nM
3. 100 to 300 nM
4. 100 to 300 nM

====

target: FGFR3-BAIAP2L1 Ba/F3 cells (Homo sapiens); test: Ba/F3 cell viability assay (CellTiter-Glo 2.0), FGFR3-BAIAP2L1 Ba/F3; type: cell-based; settings: read-out: Ba/F3 Cells FGFR3 (IC50 nM); FGFR3-BAIAP2L1 Ba/F3 cells, 48 hours, Cell Titer Glo 2.0
Sequence (P22607 23-806 limits assumed, change not shown): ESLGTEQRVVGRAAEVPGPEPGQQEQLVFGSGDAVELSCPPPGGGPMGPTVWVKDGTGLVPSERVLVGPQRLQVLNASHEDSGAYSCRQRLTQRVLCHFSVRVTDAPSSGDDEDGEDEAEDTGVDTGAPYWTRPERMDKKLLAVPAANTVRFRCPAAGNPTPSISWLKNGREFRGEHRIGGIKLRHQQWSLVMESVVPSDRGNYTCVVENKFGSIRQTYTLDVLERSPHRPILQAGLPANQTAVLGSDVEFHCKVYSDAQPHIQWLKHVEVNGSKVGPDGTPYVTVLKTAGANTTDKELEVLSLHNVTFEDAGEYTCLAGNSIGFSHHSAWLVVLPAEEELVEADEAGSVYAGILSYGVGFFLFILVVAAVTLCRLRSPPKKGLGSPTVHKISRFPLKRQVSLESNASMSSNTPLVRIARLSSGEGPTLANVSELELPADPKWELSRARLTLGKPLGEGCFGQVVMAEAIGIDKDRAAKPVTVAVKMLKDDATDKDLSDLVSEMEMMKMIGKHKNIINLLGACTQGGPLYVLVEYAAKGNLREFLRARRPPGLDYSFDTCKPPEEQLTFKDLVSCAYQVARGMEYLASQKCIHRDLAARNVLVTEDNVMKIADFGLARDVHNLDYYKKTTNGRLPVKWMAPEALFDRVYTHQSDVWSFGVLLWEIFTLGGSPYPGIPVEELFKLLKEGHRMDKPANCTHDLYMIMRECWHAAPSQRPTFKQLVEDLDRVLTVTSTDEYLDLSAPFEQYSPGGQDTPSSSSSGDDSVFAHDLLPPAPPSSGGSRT
Would you kindly list IC50 for each of these molecules?

For Cc1cnnc(C)c1[C@@H](C)Oc1ccc2[nH]nc(-c3cnc(N4CC5(CCS(=O)(=O)C5)C4)nc3)c2c1 , write its IC50.
> 300 nM

For C[C@@H](Oc1ccc2[nH]nc(-c3ccc(N4CCN(S(C)(=O)=O)CC4)nc3)c2c1)c1c(Cl)cncc1Cl , write its IC50.
1 to 20 nM

For C[C@@H](Oc1ccc2[nH]nc(-c3cnc(N4CC5(CCN(S(C)(=O)=O)C5)C4)nc3)c2c1)c1c(Cl)cncc1Cl , write its IC50.
1 to 20 nM

Next:
For C[C@@H](Oc1ccc2[nH]nc(-c3ccc(N4CCNC(=O)CC4)nc3)c2c1)c1c(Cl)cncc1Cl , write its IC50.
1 to 20 nM

====

biological target: FGFR3 (V555M) (Homo sapiens (Human), UniProt P22607, V555M); test: Kinase assay, binding constants (Kd), kinase-tagged T7 phage, qPCR; conditions: V555M mutant
Sequence (P22607 23-806 V555M): as the sequence (P22607 23-806 limits assumed, change not shown) above, with V533M counted along it
readout-label: Kd

For C[C@@H](Oc1ccc2[nH]nc(-c3cnc(N4CCN(C(=O)N(C)C)CC4)nc3)c2c1)c1c(Cl)cncc1Cl [Example 19] , write its Kd.
1 to 20 nM

Required: Kd, one value per compound below.
1. Cc1ncc(Cl)c([C@@H](C)Oc2ccc3[nH]nc(-c4cnc(N5CC6(CCCN(S(C)(=O)=O)C6)C5)c(C#N)c4)c3c2)c1Cl [Example 350]
2. C[C@@H](Oc1ccc2[nH]nc(-c3ccc(N4CC5(CCN5)C4)nc3)c2c1)c1c(Cl)cncc1Cl [Example 99]
3. C[C@@H](Oc1ccc2[nH]nc(-c3cnc(N4CC[C@H]4CO)c(C#N)c3)c2c1)c1c(Cl)cncc1Cl [Example 354]
4. C[C@@H](Oc1ccc2[nH]nc(-c3cnc(N4CC[C@H](O)C4)c(C#N)c3)c2c1)c1c(Cl)cnc(F)c1Cl [Example 288]
5. C[C@@H](Oc1ccc2[nH]nc(-c3ccc(N4CCC[C@H]4CO)nc3)c2c1)c1c(Cl)cncc1Cl [Example 237]
6. COc1cc2[nH]nc(-c3ccc(N4CCC4)nc3)c2cc1O[C@H](C)c1c(C)cnnc1C [Example 310]

["20 to 100 nM", "1 to 20 nM", "1 to 20 nM", "20 to 100 nM", "1 to 20 nM", "1 to 20 nM"]

====

Target: FGFR3 (Homo sapiens (Human), UniProt P22607)
Sequence (P22607 23-806): as the sequence (P22607 23-806 limits assumed, change not shown) above
Assay: Kinase assay, binding constants (Kd), kinase-tagged T7 phage, qPCR
Protocol: Kinase-tagged T7 phage strains were prepared in an E. coli host derived from the BL21 strain. E. coli were grown to log-phase and infected with T7 phage and incubated with shaking at 32° C. until lysis. The lysates were centrifuged and filtered to remove cell debris. […] Test compounds were prepared as 111λ stocks in 10000 DMS0. Kds were determined using an 11-point 3-fold compound dilution series with three DMSO control points. […] The kinase concentration in the eluates was measured by qPCR. […]
Would you kindly list Kd for each of these compounds?

Look over these answered cases.
For C[C@@H](Oc1ccc2[nH]nc(-c3cnn(C4CCN(C(=O)N(C)C)CC4)c3)c2c1)c1c(Cl)cncc1Cl , write its Kd.
1 to 20 nM

For CCOC(=O)N1CC2(C1)CN(c1ccc(-c3n[nH]c4ccc(O[C@@H](C)c5c(Cl)cnc(F)c5Cl)cc34)cn1)C2 , write its Kd.
> 300 nM

For C[C@@H](Oc1cc2c(-c3cnc(N4CCC4)c(C#N)c3)n[nH]c2cc1Cl)c1c(Cl)cncc1Cl , write its Kd.
100 to 300 nM

Field: next compound
For C[C@@H](Oc1ccc2[nH]nc(-c3ccc(N4CC5(CN(C(=O)C(F)(F)F)C5)C4)nc3)c2c1)c1c(Cl)cncc1Cl , write its Kd.
1 to 20 nM

====

Would you kindly list Ba/F3 FGFR1/FGFR3 Selectivity for each of these compounds?
biological target: FGFR3-BAIAP2L1 Ba/F3 cells (Homo sapiens); experiment: Ba/F3 cell viability assay (CellTiter-Glo 2.0), FGFR3-BAIAP2L1 Ba/F3; assay type: cell-based; conditions: FGFR3 > FGFR1 selectivity ratio in Ba/F3 FGFR fusion cell based assays
One number for each entry.

For C[C@@H](Oc1ccc2[nH]nc(-c3cnc(N4CC5(CCS(=O)(=O)C5)C4)nc3)c2c1)c1c(Cl)cncc1Cl , write its Ba/F3 FGFR1/FGFR3 Selectivity.
7

For C[C@@H](Oc1ccc2[nH]nc(-c3ccc(N4CCCNC(=O)C4)nc3)c2c1)c1c(Cl)cncc1Cl , write its Ba/F3 FGFR1/FGFR3 Selectivity.
6

Required: Ba/F3 FGFR1/FGFR3 Selectivity, one value per compound below.
1. C[C@@H](Oc1ccc2[nH]nc(-c3ccc(N4CCC5(CCOC5)CC4)nc3)c2c1)c1c(Cl)cncc1Cl
2. C[C@@H](Oc1ccc2[nH]nc(-c3ccc(N4CCC5(CCC(=O)N5)CC4)nc3)c2c1)c1c(Cl)cncc1Cl
3. C[C@@H](Oc1ccc2[nH]nc(-c3cnn(C4CCNCC4)c3)c2c1)c1c(Cl)cncc1Cl
4. Cc1cncc(C)c1[C@@H](C)Oc1ccc2[nH]nc(-c3ccc(N4CC5(C4)CN(S(C)(=O)=O)C5)nc3)c2c1
5. COC(=O)N1CC2(C1)CN(c1ncc(-c3n[nH]c4ccc(O[C@H](C)c5c(C)cnnc5C)cc34)cn1)C2
6. C[C@@H](Oc1ccc2[nH]nc(-c3ccc(N4CC5(CCS(=O)(=O)CC5)C4)nc3)c2c1)c1c(Cl)cncc1Cl

[22, 19, 16, 14, 14, 11]
